# EXPERIMENTAL_SYSTEM: T1, human folate receptor alpha (hFRα), recombinant protein (human, UniProt P15328 25-233)
# T1 construct: Bought recombinant proteins (His-tagged, or biotinylated via Avi-tag, e.g. AcroBiosystems FO1-H82E2, F01-H52H1); also called hFOLR1; huFOLR1
# T1 sequence (P15328 25-233 limits assumed): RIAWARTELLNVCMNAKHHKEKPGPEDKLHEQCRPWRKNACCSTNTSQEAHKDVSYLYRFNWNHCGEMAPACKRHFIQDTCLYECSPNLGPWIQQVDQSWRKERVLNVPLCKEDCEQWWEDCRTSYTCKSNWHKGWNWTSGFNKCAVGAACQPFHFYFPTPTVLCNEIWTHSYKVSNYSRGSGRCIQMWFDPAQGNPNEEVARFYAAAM
# TEST_PROTOCOL: BLI, purified VHH
// values below are reported koff

# BINDER, UNIT_INFO, koff
measured = [
    ("P01500047: P01500001(G26E, G28T, S30I, I33L)-FLAG3-HIS6 (VHH, also called P0150047) VHH: EVQLVESGGGLVQPGGSLRLSCAASESTFIGMLMGWYRQAPGKQRELVATVTSHGTTNYADSVKGRFTISRDNAKNTVYLQMNSLRPEDTAVYYCNAHFPGIYWGKGTLVTVSS", "s⁻¹", 0.000971),
    ("P01500057: P01500001(G26E, G28P, D72E, N73G)-FLAG3-HIS6 (VHH, also called P0150057) VHH: EVQLVESGGGLVQPGGSLRLSCAASESPFSGMIMGWYRQAPGKQRELVATVTSHGTTNYADSVKGRFTISREGAKNTVYLQMNSLRPEDTAVYYCNAHFPGIYWGKGTLVTVSS", "s⁻¹", 0.000307),
    ("P01500043: P01500001(G28T, I33L, D72E)-FLAG3-HIS6 (VHH, also called P0150043) VHH: EVQLVESGGGLVQPGGSLRLSCAASGSTFSGMLMGWYRQAPGKQRELVATVTSHGTTNYADSVKGRFTISRENAKNTVYLQMNSLRPEDTAVYYCNAHFPGIYWGKGTLVTVSS", "s⁻¹", 0.000534),
    ("P01500055: P01500001(V51R, D72E, N73G)-FLAG3-HIS6 (VHH, also called P0150055) VHH: EVQLVESGGGLVQPGGSLRLSCAASGSGFSGMIMGWYRQAPGKQRELVATRTSHGTTNYADSVKGRFTISREGAKNTVYLQMNSLRPEDTAVYYCNAHFPGIYWGKGTLVTVSS", "s⁻¹", 0.000382),
]
